Target Desc: Protein cereblon/von Hippel-Lindau disease tumor suppressor (Homo sapiens, UniProt P40337+Q96SW2)
Sequence (P40337 whole entry, looked up): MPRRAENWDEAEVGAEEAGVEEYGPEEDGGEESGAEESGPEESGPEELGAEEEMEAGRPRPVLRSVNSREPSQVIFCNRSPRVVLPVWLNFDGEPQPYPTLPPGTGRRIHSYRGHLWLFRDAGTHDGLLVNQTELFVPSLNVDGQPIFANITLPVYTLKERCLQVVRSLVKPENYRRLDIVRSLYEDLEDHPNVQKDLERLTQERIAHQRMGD
Sequence (Q96SW2 whole entry, looked up): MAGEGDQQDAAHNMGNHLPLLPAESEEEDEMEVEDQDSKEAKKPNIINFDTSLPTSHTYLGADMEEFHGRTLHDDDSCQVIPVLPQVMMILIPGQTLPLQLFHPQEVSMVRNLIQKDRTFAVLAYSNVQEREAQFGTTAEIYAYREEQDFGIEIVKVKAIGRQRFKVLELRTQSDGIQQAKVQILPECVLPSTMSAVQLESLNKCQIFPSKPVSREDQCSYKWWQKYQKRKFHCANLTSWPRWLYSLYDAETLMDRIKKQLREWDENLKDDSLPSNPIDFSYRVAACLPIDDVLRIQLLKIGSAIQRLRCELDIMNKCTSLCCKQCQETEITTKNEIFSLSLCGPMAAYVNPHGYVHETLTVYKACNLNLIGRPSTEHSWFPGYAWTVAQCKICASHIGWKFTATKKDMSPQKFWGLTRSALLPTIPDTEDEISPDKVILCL
Measurement Notes: Protac activity at VHL/CRBN in human HeLa cells assessed as CRBN protein abundance at 1 uM after 4 hrs by Western blot analysis relative to DMSO
Type: cell-based
Rule: measured Activity below 80% gets Satisfied; anything equal to or greater than 80% gets Not satisfied.

Consider the worked cases shown below.
[[record]]
compound = "Cc1ncsc1-c1ccc(CNC(=O)[C@@H]2C[C@@H](O)CN2C(=O)[C@@H](NC(=O)C2(F)CC2)C(C)(C)C)c(OCCOCCOCCOCCOCCOCC(=O)NCCNc2cccc3c2C(=O)N(C2CCC(=O)NC2=O)C3=O)c1 (stereo not given in full)"
class_label = "Satisfied"

[[record]]
compound = "O=C1CCC(N2C(=O)c3cccc(NCCOCCOCCNc4cccc5c4C(=O)N(C4CCC(=O)NC4=O)C5=O)c3C2=O)C(=O)N1 (stereo not given)"
class_label = "Satisfied"

[[record]]
compound = "Cc1ncsc1-c1ccc(CNC(=O)[C@@H]2C[C@@H](O)CN2C(=O)[C@@H](NC(=O)COCCOCCOCCOCCOCCOCCOCCOCCOCC(=O)NCCNc2cccc3c2C(=O)N(C2CCC(=O)NC2=O)C3=O)C(C)(C)C)cc1 (stereo not given in full)"
class_label = "Not satisfied"


Ask: In the record for Cc1ncsc1-c1ccc(CNC(=O)[C@@H]2C[C@@H](O)CN2C(=O)[C@@H](NC(=O)C2(F)CC2)C(C)(C)C)c(OCCCCC(=O)NCCNc2cccc3c2C(=O)N(C2CCC(=O)NC2=O)C3=O)c1 (stereo not given in full) , is Activity less than 80%?
Result: Not satisfied
